pIC50: −log10 of the molar value.
Published pIC50 for Cyclin-dependent kinase 8 (Homo sapiens, UniProt P49336), assembled from different documents, is shown next.

{"record-smiles": "CC(C)c1cnn2c(NCc3ccccc3)cc(NCCCCCCN)nc12", "censoring-qualifier": "=", "pIC50": 5.38}
{"record-smiles": "Cn1ncc2cc(-c3cnc4[nH]nc(Cl)c4c3N3CCC4(CCNC4=O)CC3)ccc21", "censoring-qualifier": "=", "pIC50": 8.70}
{"record-smiles": "FC(F)(F)CNc1nc(Nc2ccc(N3CCOCC3)c(Cl)c2)nc2ccoc12", "censoring-qualifier": "<", "pIC50": 5.00}
{"record-smiles": "Cc1n[nH]c2ncc(C(=O)N3CCC[C@H]3c3ccc(Cl)cc3)cc12", "censoring-qualifier": "=", "pIC50": 8.52}
{"record-smiles": "Cn1cc(-c2ccc(-c3cncc(Cl)c3N3CCC4(CCNC4=O)CC3)cc2)cn1", "censoring-qualifier": "=", "pIC50": 7.41}

###

Published IC50 for Cyclin-dependent kinase 8 (Homo sapiens, UniProt P49336), assembled from different documents, is shown next.

{"compound": "Cc1cccc(Cc2n[nH]c3cc(O)c(C(=O)N4Cc5ccccc5C4)cc23)c1", "censoring-qualifier": "=", "IC50 / nM": 15}
{"compound": "CN1CCN(C(=O)c2ccc3cc(CCNc4ncnc5ccc(C#N)cc45)ccc3c2)CC1", "censoring-qualifier": "=", "IC50 / nM": 24}
{"compound": "CC1CCc2nc(N)c(C#N)c(-c3cccnc3)c2C1 (stereo not drawn)", "censoring-qualifier": "=", "IC50 / nM": 500}
{"compound": "CC(=O)N1CCC(n2cc(Nc3ncc(Cl)c(-c4cnc5ccccn45)n3)cn2)CC1", "censoring-qualifier": "=", "IC50 / nM": 42}
{"compound": "CC(=O)N(C)[C@H]1CC[C@@]2(C)[C@@H](CC[C@@H]3[C@@H]2CC[C@]2(C)[C@@H](c4ccc5ccncc5c4)CC[C@@H]32)C1", "censoring-qualifier": "=", "IC50 / nM": 34}
{"compound": "COc1ccc(/C=C\\c2cc(OC)c(OC)c(OC)c2)cc1NC(=O)CCC(=O)N[C@@H](CCCNC(=N)N)C(=O)O", "censoring-qualifier": ">", "IC50 / nM": 10000}
{"compound": "CC(C)c1cnn2c(NCc3ccccc3)cc(NC[C@H]3CCNC[C@@H]3O)nc12", "censoring-qualifier": "=", "IC50 / nM": 1200}
{"compound": "CC(C)c1cnn2c(NCc3ccccc3)cc(N[C@@H](CO)[C@H](O)CO)nc12", "censoring-qualifier": "=", "IC50 / nM": 90}
